For each of the compounds below, state its % inhibition.
- Subject Of Test: N-acetyl-β-D-hexosaminidase (Aspergillus oryzae, UniProt Q8J2T0)
- Construct: purchased Sigma Aldrich Chemicals Limited
- Sequence (Q8J2T0 97-600): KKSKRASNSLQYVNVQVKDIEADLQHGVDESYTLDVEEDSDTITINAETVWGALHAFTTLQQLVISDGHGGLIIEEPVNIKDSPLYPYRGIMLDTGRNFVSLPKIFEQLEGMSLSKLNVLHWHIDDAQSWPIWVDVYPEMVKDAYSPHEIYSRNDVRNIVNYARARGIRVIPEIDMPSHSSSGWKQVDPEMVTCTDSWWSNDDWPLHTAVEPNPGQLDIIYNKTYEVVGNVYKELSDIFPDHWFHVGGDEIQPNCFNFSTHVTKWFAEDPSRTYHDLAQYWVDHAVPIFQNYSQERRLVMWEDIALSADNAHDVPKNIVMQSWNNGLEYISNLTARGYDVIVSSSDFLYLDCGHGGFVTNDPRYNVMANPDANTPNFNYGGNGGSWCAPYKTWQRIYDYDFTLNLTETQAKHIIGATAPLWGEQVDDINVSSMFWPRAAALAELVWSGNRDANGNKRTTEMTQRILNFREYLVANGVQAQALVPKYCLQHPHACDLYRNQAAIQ
- Test Method Notes: Glycosidase assay, p-nitrophenyl substrate
- Assay type: biochemical
- Study Conditions: Aspergillus oryzae enzyme; screened at 0.14 mg mL−1 (footnote: 0.4 mM)
Field: numeric (%). Do not append units.

Inquiry: Using the record for "CN1C[C@@H](CO)C[C@H]1C(=O)O" , report its % inhibition.
Reply text: −6

Inquiry: Query "OC[C@H]1NC[C@H](O)[C@@H](O)[C@@H]1O" next
Reply text: −5.50

Inquiry: Can you handle "CN1C[C@](O)(CO)C[C@H]1C(=O)O" next?
Reply text: −6

Inquiry: And what about the compound "OC[C@H]1N[C@H](CO)[C@@H](O)[C@@H]1O" ?
Reply text: 5.62

----------
- Subject Of Test: α-D-glucosidase (Oryza sativa subsp. japonica, UniProt Q653V7)
- Construct: purchased Sigma Aldrich Chemicals Limited
- Sequence (Q653V7 34-885): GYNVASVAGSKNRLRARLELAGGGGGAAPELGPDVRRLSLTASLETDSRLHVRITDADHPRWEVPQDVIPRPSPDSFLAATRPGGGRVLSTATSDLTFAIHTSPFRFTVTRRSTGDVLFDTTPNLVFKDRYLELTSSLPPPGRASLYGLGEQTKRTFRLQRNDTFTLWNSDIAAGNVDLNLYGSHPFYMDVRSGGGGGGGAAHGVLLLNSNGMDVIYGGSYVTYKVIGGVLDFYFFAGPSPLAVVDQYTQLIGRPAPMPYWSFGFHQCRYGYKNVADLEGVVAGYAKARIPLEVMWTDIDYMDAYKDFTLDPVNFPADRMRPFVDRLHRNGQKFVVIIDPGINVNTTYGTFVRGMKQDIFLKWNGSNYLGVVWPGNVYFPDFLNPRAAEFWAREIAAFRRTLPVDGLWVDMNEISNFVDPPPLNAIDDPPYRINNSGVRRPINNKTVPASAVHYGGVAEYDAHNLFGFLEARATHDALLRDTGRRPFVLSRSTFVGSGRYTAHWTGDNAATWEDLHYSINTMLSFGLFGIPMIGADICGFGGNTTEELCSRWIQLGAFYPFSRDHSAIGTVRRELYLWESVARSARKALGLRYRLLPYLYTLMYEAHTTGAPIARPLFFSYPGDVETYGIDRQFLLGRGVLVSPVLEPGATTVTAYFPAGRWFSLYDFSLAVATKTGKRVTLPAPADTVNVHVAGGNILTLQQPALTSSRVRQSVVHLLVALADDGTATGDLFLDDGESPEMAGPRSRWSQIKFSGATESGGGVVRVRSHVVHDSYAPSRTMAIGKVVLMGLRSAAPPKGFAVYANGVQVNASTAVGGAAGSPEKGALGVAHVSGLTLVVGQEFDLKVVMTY
- Test Method Notes: Glycosidase assay, p-nitrophenyl substrate
- Format: biochemical
- Study Conditions: Rice enzyme; screened at 0.14 mg mL−1 (footnote: 0.4 mM)
Metric Name: % inhibition (%)
Numbers only; they are read as %.

Inquiry: Quick one: % inhibition for "CN1C[C@@H](CO)C[C@H]1C(=O)O" ?
Reply text: 5

Inquiry: Now try "OC[C@H]1N[C@H](CO)[C@@H](O)[C@@H]1O" .
Reply text: 94.59

Inquiry: # repeat for "CN1C[C@](O)(CO)C[C@H]1C(=O)O"
Reply text: 11

Inquiry: How about this compound: "OC[C@H]1NC[C@H](O)[C@@H](O)[C@@H]1O"
Reply text: 99.56

----------
- Subject Of Test: α-D-glucosidase (Saccharomyces cerevisiae, UniProt P53341)
- Construct: purchased Sigma Aldrich Chemicals Limited
- Sequence (P53341 whole entry): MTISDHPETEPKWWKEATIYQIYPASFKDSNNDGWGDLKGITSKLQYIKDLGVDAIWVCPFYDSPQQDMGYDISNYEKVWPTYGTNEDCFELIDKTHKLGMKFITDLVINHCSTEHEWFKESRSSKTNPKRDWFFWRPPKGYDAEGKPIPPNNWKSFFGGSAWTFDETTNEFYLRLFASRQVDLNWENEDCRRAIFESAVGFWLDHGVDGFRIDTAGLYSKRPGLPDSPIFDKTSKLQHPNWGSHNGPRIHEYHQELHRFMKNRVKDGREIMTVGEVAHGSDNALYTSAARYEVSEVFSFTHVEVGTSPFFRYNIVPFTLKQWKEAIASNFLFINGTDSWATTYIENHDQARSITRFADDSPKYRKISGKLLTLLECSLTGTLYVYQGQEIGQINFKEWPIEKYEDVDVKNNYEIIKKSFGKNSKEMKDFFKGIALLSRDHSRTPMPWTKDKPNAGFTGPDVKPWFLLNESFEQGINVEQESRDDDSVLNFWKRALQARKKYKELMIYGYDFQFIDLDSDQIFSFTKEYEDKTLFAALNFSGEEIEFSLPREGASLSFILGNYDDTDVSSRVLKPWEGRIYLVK
- Test Method Notes: Glycosidase assay, p-nitrophenyl substrate
- Assay type: biochemical
- Study Conditions: Saccharomyces cerevisiae enzyme; screened at 0.14 mg mL−1 (footnote: 0.4 mM); 20° C
So I've got a bunch of compounds here, and I need their % inhibition values.
// note: answer is a bare numeric in %

Inquiry: Entry OC[C@H]1NC[C@H](O)[C@@H](O)[C@@H]1O [DNJ, 1-deoxynojirimycin] : reported % inhibition = ?
Reply text: 35.67

Inquiry: Now consider OC[C@H]1N[C@H](CO)[C@@H](O)[C@@H]1O [DMDP] .
Reply text: 97.37

----------
Give % inhibition for every item shown.
- Subject Of Test: α-D-galactosidase (Coffea arabica)
- Construct: purchased Sigma Aldrich Chemicals Limited
- Sequence (Q42656 16-378): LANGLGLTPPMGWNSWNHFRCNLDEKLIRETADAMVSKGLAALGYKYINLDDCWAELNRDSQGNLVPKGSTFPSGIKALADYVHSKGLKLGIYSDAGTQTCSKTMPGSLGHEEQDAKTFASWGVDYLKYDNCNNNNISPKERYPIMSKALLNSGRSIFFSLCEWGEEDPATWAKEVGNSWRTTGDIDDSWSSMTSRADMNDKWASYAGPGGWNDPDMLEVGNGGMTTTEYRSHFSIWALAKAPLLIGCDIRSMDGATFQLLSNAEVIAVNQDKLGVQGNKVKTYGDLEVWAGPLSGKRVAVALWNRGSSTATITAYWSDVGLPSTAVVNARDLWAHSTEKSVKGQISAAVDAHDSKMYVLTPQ
- Test Method Notes: Glycosidase assay, p-nitrophenyl substrate
- Type: biochemical
- Study Conditions: Green coffee bean enzyme; screened at 0.14 mg mL−1 (footnote: 0.4 mM)

Inquiry: Bench note: what % inhibition did "CN1C[C@](O)(CO)C[C@H]1C(=O)O" show?
Reply text: <5%

Inquiry: Try the compound "OC[C@H]1NC[C@H](O)[C@@H](O)[C@@H]1O"
Reply text: −3.34%

Inquiry: Try this compound too: "CN1C[C@@H](CO)C[C@H]1C(=O)O"
Reply text: <5%

Inquiry: Another compound to check: "OC[C@H]1N[C@H](CO)[C@@H](O)[C@@H]1O"
Reply text: 6.95%
